# System under test: human TRPA1 (Homo sapiens, UniProt O75762, K186N/R3C/R58T)
# Construct: expressed in transfected cells; pcDNA3 control cells
# Sequence (O75762 whole entry R3C/R58T/K186N): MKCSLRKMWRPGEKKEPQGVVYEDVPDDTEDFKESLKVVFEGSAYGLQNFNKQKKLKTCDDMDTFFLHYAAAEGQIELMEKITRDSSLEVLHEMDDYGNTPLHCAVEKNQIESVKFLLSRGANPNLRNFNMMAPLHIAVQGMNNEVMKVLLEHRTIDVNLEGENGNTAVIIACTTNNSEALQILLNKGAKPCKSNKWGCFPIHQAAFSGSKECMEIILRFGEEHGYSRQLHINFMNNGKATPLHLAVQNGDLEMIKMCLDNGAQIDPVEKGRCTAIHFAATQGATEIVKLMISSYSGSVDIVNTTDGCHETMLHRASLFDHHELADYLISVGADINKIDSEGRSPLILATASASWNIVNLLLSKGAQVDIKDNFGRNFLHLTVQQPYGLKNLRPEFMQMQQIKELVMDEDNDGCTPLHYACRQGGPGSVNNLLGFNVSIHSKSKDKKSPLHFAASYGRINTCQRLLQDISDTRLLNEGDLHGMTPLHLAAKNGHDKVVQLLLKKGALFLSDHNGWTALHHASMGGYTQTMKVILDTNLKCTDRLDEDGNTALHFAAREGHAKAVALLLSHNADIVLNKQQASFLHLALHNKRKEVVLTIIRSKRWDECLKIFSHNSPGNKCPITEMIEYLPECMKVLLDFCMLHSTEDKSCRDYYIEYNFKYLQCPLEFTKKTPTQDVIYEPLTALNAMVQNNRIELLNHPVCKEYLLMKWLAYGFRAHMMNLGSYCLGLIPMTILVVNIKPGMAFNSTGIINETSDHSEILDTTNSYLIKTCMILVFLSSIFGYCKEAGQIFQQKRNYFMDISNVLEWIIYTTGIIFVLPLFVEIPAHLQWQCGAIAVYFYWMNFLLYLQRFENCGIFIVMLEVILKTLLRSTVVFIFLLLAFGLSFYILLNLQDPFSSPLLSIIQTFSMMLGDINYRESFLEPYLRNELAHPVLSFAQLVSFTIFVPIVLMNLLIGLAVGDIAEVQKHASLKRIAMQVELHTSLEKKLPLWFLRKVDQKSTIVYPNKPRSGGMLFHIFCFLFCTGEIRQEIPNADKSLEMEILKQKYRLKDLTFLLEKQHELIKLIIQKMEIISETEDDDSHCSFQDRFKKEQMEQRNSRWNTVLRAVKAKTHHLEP
# Assay details: Intracellular calcium (Fluo-4, FLIPR) activation of TRPA1 cells by GRAS compounds;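 also: TRPA1-expressing cells, fluorescence read on a FLIPR Tetra (ex 488 nm, em 514 nm) every 2 s for 10 min after compound addition, baseline subtracted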
# Type: cell-based
# Assay conditions: Table 1(a); 1 mM; relative to AITC 30 μM; average of three plates; read-out: A1 activation, % of agonist value
// values below are reported activation at 1000 µM
Output spec: scalar in %, unitless text.

# annotated cases, reported activation at 1000 µM shown
> print(dat)
                                   compound       measurement.name  unit.descriptor  measurement
1  O=Cc1cc2ccccc2o1 [2-Benzofurancarboxaldehyde]  activation at 1000 µM                %           91
2         CCCCC/C=C/CO [Trans-2-Octen-1-ol]  activation at 1000 µM                %          118
3  CCCSSc1ccoc1C [Propyl 2-methyl-3-furyl disulfide]  activation at 1000 µM                %          210

// sample CCCCCC(=Cc1ccccc1)CO [Alpha-Amylcinnamyl alcohol] , its activation at 1000 µM was 96.4

activation at 1000 µM recorded for this compound, CC1=C(O)C(=O)CO1 [4-Hydroxy-5-methyl-3-furanone] , is 58

The reported activation at 1000 µM of the compound CCCCC=CC(C)=O [3-Octen-2-one] was 52.7

Entry under test: CC(C)C(C=O)c1ccccc1 (stereo not shown) [3-Methyl-2-Phenylbutyraldehyde] . Its activation at 1000 µM was 90.6
